Item-by-item account of log10 of TGI
Test system: RXF 393 renal
Experiment: NCI tumour cell line growth inhibition, 48 h
measured_parameter: log10 of TGI (log10 of the value in µM)

>>> meas_value("COC(=O)[C@H](Cc1ccccc1)NC(=O)N(CCC#N)CCN(C(=O)N[C@@H](Cc1ccccc1)C(=O)OC)c1ccccc1")
1.58
>>> meas_value("O=C1c2ccccc2-c2c1c1c(NCCCO)nc3ccccc3c1n2Cc1ccccc1")
1.94
>>> meas_value("COc1cc(C2c3cc4c(cc3[C@@H](Nc3ccc5c(c3)OCCO5)C3COC(=O)[C@H]23)OCO4)cc(OC)c1O (some centres undefined)")
0.67
>>> meas_value("Fc1ccc2nc(-c3cc(-c4ccc5c(c4)OCO5)n[nH]3)[nH]c2c1")
1.51
>>> meas_value("Cc1ccc(NC(=O)/C(Cc2nc3ccc([N+](=O)[O-])cc3[nH]c2=O)=N\\NC(=O)C[n+]2ccccc2)c(C)c1")
1.86

---

Tested on: SW-620 colon
Assay: NCI tumour cell line growth inhibition, 48 h
Item-by-item account of TGI
measured_parameter: TGI

>>> meas_value("CN(C)c1cccc2c1C(=O)C=CC21c2ccc(N(C)C)c3c(N(C)C)ccc(c23)C(c2ccccc2)C1c1ccccc1 (stereo not drawn)")
"54 µM"
>>> meas_value("c1ccc2[nH]c(CNc3ccc(C4C[Se]N=N4)cc3)nc2c1 (stereo not drawn)")
"> 100 µM"
>>> meas_value("Cc1ccc(C)c(N2C(=O)C(=O)C(c3nc4ccccc4s3)C(=Nc3cccc4c(=O)[nH][nH]c(=O)c34)C2=O)c1 (stereo not drawn)")
"> 100 µM"
>>> meas_value("Cc1c(C)c(CC(=O)N2CC2)c(C)c(C)c1CC(=O)N1CC1")
"> 57.2 µM"
>>> meas_value("Cc1cccc(N(CC(=O)O)S(=O)(=O)c2ccccc2)c1")
"> 100 µM"
>>> meas_value("CCN1C(=O)C(=C/C=C/c2ccc(N(CC)CC)cc2)C(=O)N(CC)C1=S")
"> 100 µM"
>>> meas_value("CCN(CC)CCO/N=C1\\CC[C@H]2[C@@H]3CCc4cc(OC)ccc4[C@H]3CC[C@]12C")
"3.47 µM"
>>> meas_value("COc1ccccc1NC(=O)/C(=C/c1ccccc1)C(C)=O")
"> 100 µM"
>>> meas_value("CON(C)C(=O)C1CCCO1 (stereo not drawn)")
"> 100 µM"
>>> meas_value("CC(C)[O-].CC(C)[O-].CN(CCN(C)Cc1cc(F)cc(F)c1[O-])Cc1cc(F)cc(F)c1[O-].[Ti+4]")
"3.3 µM"
>>> meas_value("Cc1c(-c2ccccc2)[nH]n(C2=NCCN2)c1=O")
"> 100 µM"
>>> meas_value("CC(C)(C)OC(=O)NC1CCCC1=O (stereo not drawn)")
"> 100 µM"
>>> meas_value("COc1cccc2c(=O)c3c(sc12)c(NCCCNCCO)nc1ccccc13")
"2.9 µM"
>>> meas_value("O=C1CNS(=O)(=O)N1")
"> 100 µM"
>>> meas_value("O=C(CC(=O)Nc1ccccc1)NNC(c1cc(N=Nc2ccc(Br)cc2)ccc1O)P(O)O (stereo not drawn)")
"> 10 µM"
>>> meas_value("CN(C)C(=S)Nc1nnc(Nc2ccccc2)s1")
"> 100 µM"
>>> meas_value("COc1ccc2c(NCCCCCCNc3c4ccccc4nc4cc(OC)ccc34)c3ccccc3nc2c1")
"1.08 µM"
>>> meas_value("Cc1cc(NS(=O)(=O)c2ccc(NC(NC(=O)C(C(F)(F)F)C(F)(F)F)(C(F)(F)F)C(F)(F)F)cc2)no1")
"> 100 µM"
>>> meas_value("COc1ccc(C2Oc3c(c(O)cc4c3[C@H](c3ccc(O)cc3O)[C@H](O)C(c3ccc(O)c(O)c3)O4)C[C@@H]2O)cc1O (stereo partly drawn)")
"> 100 µM"
>>> meas_value("CC1(C)N=C2C(=O)c3c([nH]c4ccccc34)[C@]3(C)CCC1CC23 (stereo partly drawn)")
"> 6.25 µM"
>>> meas_value("N#Cc1c(-c2ccco2)cc(-c2ccccc2)[nH]c1=O")
"> 100 µM"
>>> meas_value("CC(C)C1=C(O)C2=C(C(=O)C1=O)C1(C)CCCC(C)(C)C1C(O)C2OC=O (stereo not drawn)")
"13.1 µM"
>>> meas_value("N#Cc1c(-c2ccccc2)c2c([nH]c1=O)-c1cc([N+](=O)[O-])ccc1CCC2")
"> 100 µM"
